tested on: HEK-293T; assay: Multiplex assay against HEK293T; type: toxicity, cell-based; settings: human, 24 h, 10 µM, compound concentration 10 uM, replicate 1
The compounds listed here are annotated with their Population Apoptotic (%).
Write the value in % as a bare number.

For orientation, consider the following solved cases.
{"columns": ["compound", "Population Apoptotic (%)"],
 "data": [
  ["O=C1COc2nccc(-c3ccccc3F)c2CN1Cc1cc(C(F)(F)F)cc(C(F)(F)F)c1", 52],
  ["CN1CCN2c3ncccc3Cc3ccccc3C2C1 (stereo not drawn)", 44],
  ["O=S(=O)(c1ccccc1)c1cnc2c(N3CCNCC3)cccc2c1 [INTEPIRDINE]", 52],
  ["Cc1ccc(-c2ccc(F)cc2COc2ccc(CCC(=O)O)cc2)cc1", 36],
  ["Cc1nc2ccc(Oc3ccc(F)cc3)cc2c(=O)n1C[C@H]1CCCN(C(C)C)C1.Cl", 49]
]}

Data request: Quick one: Population Apoptotic (%) for Cc1ccc(C(C)(O)c2nc3ccccc3s2)c(C)c1 (stereo not drawn) ?
Data returned: 28

Data request: Quick one: Population Apoptotic (%) for C[C@@H]1C[C@H]2[C@@H]3CCC4=CC(=O)C=C[C@]4(C)[C@@]3(F)[C@@H](O)C[C@]2(C)[C@@]1(O)C(=O)CO ?
Data returned: 36

Data request: Quick one: Population Apoptotic (%) for COc1ccccc1N1CCN(CCCCNC(=O)c2ccc3ccccc3c2)CC1.Cl ?
Data returned: 56

====

test system: HEK-293T; test: Multiplex assay against HEK293T; assay type: toxicity, cell-based; settings: human, 24 h, 10 µM, compound concentration 10 uM, replicate 2
value_kind: Population Mitochondria Different-Phenotype (%)
Write the value in % as a bare number.

For orientation, consider the following solved cases.
{"columns": ["compound", "value_units", "recorded_result"],
 "data": [
  ["COc1cc(NC(=O)CCN2CCC(OC(=O)Nc3ccccc3-c3ccccc3)CC2)c(Cl)cc1CNC[C@H](O)c1ccc(O)c2[nH]c(=O)ccc12 [BATEFENTEROL]", "%", 89],
  ["O=C(O)Cc1ccccc1Nc1c(Cl)cccc1Cl [DICLOFENAC]", "%", 50],
  ["CCCC(CCC)C(=O)O [VALPROIC ACID]", "%", 30]
]}

Data request: Quick one: Population Mitochondria Different-Phenotype (%) for O=C(O)c1cc2ccccc2c(Cc2c(O)c(C(=O)O)cc3ccccc23)c1O [PAMOIC ACID] ?
Data returned: 43

Data request: Quick one: Population Mitochondria Different-Phenotype (%) for CSCC[C@H](NC=O)C(=O)N[C@@H](CC(C)C)C(=O)N[C@@H](Cc1ccccc1)C(=O)O ?
Data returned: 53

====

test system: Fibroblast; experiment: Multiplex assay against human fibroblast; format: toxicity, cell-based; conditions: 24 h, 10 µM, compound concentration 10 uM, replicate 1
The compounds listed here are annotated with their Population Mitotic Cells (%).
Write the value in % as a bare number.

For orientation, consider the following solved cases.
{"columns": ["compound", "value_kind", "recorded_result"],
 "data": [
  ["CSc1ccccc1N1CCN(CCCCCC(=O)NC2CCCc3ccccc32)CC1.Cl (stereo not given)", "Population Mitotic Cells (%)", 9],
  ["CC(C)(C)c1ccc(S(=O)(=O)Nc2ccc(Cl)cc2C(=O)c2cc[n+]([O-])cc2)cc1", "Population Mitotic Cells (%)", 33],
  ["CCOc1c2c(c(OCC)c3ncccc13)CN(c1ccc(CS(=O)(=O)NC(=O)Cc3ccccc3OC)cc1C)C2=O", "Population Mitotic Cells (%)", 57],
  ["CN1CCN(c2nc3cc(C(F)(F)F)ccc3n3cccc23)CC1.O=C(O)/C=C\\C(=O)O.O=C(O)/C=C\\C(=O)O", "Population Mitotic Cells (%)", 22],
  ["CN(C)CCCc1cc(C(=O)Nc2ccc(-c3ccncc3)cc2)ccc1O.Cl.Cl", "Population Mitotic Cells (%)", 52]
]}

Now consider the entry below.
Data request: Quick one: Population Mitotic Cells (%) for COc1ccc2c(c1)C(C(=O)N(Cc1ccc(N(C)C)cc1)c1ccc(C(C)C)cc1)CCC2.Cl (stereo not given) ?
Data returned: 50

====

The molecules listed here are annotated with their Population Pyknosed Nuclei (%).
tested on: U2OS; assay: Multiplex assay against U2OS; format: toxicity, cell-based; settings: human, 12 h, 1 µM, compound concentration 1 uM, replicate 2
Write the value in % as a bare number.

For orientation, consider the following solved cases.
{"columns": ["molecule", "value_units", "Population Pyknosed Nuclei (%)"],
 "data": [
  ["CN(C)CCCc1cc(C(=O)Nc2ccc(-c3ccncc3)cc2)ccc1O.Cl.Cl", "%", 13],
  ["O=C(O)c1cc2ccccc2c(Cc2c(O)c(C(=O)O)cc3ccccc23)c1O [PAMOIC ACID]", "%", 11],
  ["O=C(NCCO)c1cccc(-c2cc(Nc3ccc(OC(F)(F)F)cc3)ncn2)c1", "%", 10],
  ["CCOc1c2c(c(OCC)c3ncccc13)CN(c1ccc(CS(=O)(=O)NC(=O)Cc3ccccc3OC)cc1C)C2=O", "%", 4],
  ["COc1cc(C(=O)N(CCCc2ccccc2)Cc2ccc(CC(=O)O)cc2)cc(OC)c1C", "%", 11],
  ["CN(C)c1ccnc2sc3c(=O)n(N4CCCCCC4)cnc3c12", "%", 6]
]}

Data request: Quick one: Population Pyknosed Nuclei (%) for COc1ccc2c(c1)C(C(=O)N(Cc1ccc(N(C)C)cc1)c1ccc(C(C)C)cc1)CCC2.Cl (centres undefined) ?
Data returned: 8

Data request: Quick one: Population Pyknosed Nuclei (%) for CC1(COc2ccc3c(c2)ncn3-c2ccc3cccc(N4CCC(N)CC4)c3n2)COC1 [CRENOLANIB] ?
Data returned: 10

Data request: Quick one: Population Pyknosed Nuclei (%) for Oc1c(CN2CCN(c3ccccn3)CC2)cc(Cl)c2cccnc12 ?
Data returned: 5

====

tested on: Fibroblast; test: Multiplex assay against human fibroblast; type: toxicity, cell-based; details: 12 h, 10 µM, compound concentration 10 uM, replicate 2
The compounds listed here are annotated with their Population Tubulin-Different-Phenotype (%).
Write the value in % as a bare number.

For orientation, consider the following solved cases.
{"columns": ["compound", "assayed_target", "recorded_result"],
 "data": [
  ["CCCn1c(=O)c2[nH]c(C3CCCC3)nc2n(CCC)c1=O", "Fibroblast", 59],
  ["O=S(=O)(c1ccccc1)c1cnc2c(N3CCNCC3)cccc2c1 [INTEPIRDINE]", "Fibroblast", 68],
  ["COc1cc(C(=O)N(CCCc2ccccc2)Cc2ccc(CC(=O)O)cc2)cc(OC)c1C", "Fibroblast", 47]
]}

Data request: Population Tubulin-Different-Phenotype (%) of CCCC(CCC)C(=O)O [VALPROIC ACID] on Fibroblast?
Data returned: 41

Data request: Population Tubulin-Different-Phenotype (%) of Cc1ccc(C(C)(O)c2nc3ccccc3s2)c(C)c1 (stereo not given) on Fibroblast?
Data returned: 60

Data request: Population Tubulin-Different-Phenotype (%) of CC[C@H]1OC(=O)[C@H](C)[C@@H](O[C@H]2C[C@@](C)(OC)[C@@H](O)[C@H](C)O2)[C@H](C)[C@@H](O[C@@H]2O[C@H](C)C[C@H](N(C)C)[C@H]2O)[C@@]2(C)CC(C)=C(O2)[C@H](C)[C@@H](O)[C@]1(C)O on Fibroblast?
Data returned: 73

====

tested on: Fibroblast; assay: Multiplex assay against human fibroblast; type: toxicity, cell-based; details: 12 h, 10 µM, compound concentration 10 uM, replicate 1
value_kind: Population Membrane Permeable-Phenotype (%)
Write the value in % as a bare number.

For orientation, consider the following solved cases.
{"columns": ["molecule", "recorded_result"],
 "data": [
  ["O=C(O)Cc1ccccc1Nc1c(Cl)cccc1Cl", 0],
  ["O=C(O)c1cc2ccccc2c(Cc2c(O)c(C(=O)O)cc3ccccc23)c1O", 1],
  ["COc1c(C)cc(NC(=O)c2nn(Cc3ccc(F)cc3)c3c2CN(C(=O)c2ccc[nH]2)C[C@]3(C)C(N)=O)cc1C", 0]
]}

Data request: Population Membrane Permeable-Phenotype (%) of COc1cc(C(=O)N(CCCc2ccccc2)Cc2ccc(CC(=O)O)cc2)cc(OC)c1C on Fibroblast?
Data returned: 0

Data request: Population Membrane Permeable-Phenotype (%) of CN1CCN2c3ncccc3Cc3ccccc3C2C1 (centres undefined) on Fibroblast?
Data returned: 0

Data request: Population Membrane Permeable-Phenotype (%) of C[C@H]1[C@H]2CC[C@H]3[C@@H]4CC=C5C[C@@H](N(C)C)CC[C@]5(C)[C@H]4CC[C@]23CN1C on Fibroblast?
Data returned: 5

Data request: Population Membrane Permeable-Phenotype (%) of CC1(COc2ccc3c(c2)ncn3-c2ccc3cccc(N4CCC(N)CC4)c3n2)COC1 on Fibroblast?
Data returned: 2

Data request: Population Membrane Permeable-Phenotype (%) of c1cc(OCCCN2CCCCC2)ccc1CN1CCCCC1 on Fibroblast?
Data returned: 0

Data request: Population Membrane Permeable-Phenotype (%) of CN(C)c1ccnc2sc3c(=O)n(N4CCCCCC4)cnc3c12 on Fibroblast?
Data returned: 1
